target: Carbonic anhydrase 9 (Homo sapiens)
pKi: −log10 of the molar value.
Lab note: anything with pKi at or over 8 counts as yes; the rest go in no.

Some entries whose results are on file:
[[record]]
smiles_code = "NS(=O)(=O)c1ccc2nc(NC(=S)N3CCN(C(=S)Nc4nc5ccc(S(N)(=O)=O)cc5s4)CC3)sc2c1"
target = "Carbonic anhydrase 9 (Homo sapiens)"
label_value = "yes"

[[record]]
smiles_code = "NS(=O)(=O)c1ccc2nc(NC(=O)CSc3nc(O)cc(=O)[nH]3)sc2c1"
target = "Carbonic anhydrase 9 (Homo sapiens)"
label_value = "no"

[[record]]
smiles_code = "Cc1ccc(OCc2nnc(SCC(=O)Nc3nc4ccc(S(N)(=O)=O)cc4s3)n2N)cc1Cl"
target = "Carbonic anhydrase 9 (Homo sapiens)"
label_value = "no"

[[record]]
smiles_code = "NS(=O)(=O)c1ccc2nc(NC(=O)Cn3ncc4c(=O)[nH]cnc43)sc2c1"
target = "Carbonic anhydrase 9 (Homo sapiens)"
label_value = "yes"


Query string: Please tell me: is the compound CSc1nn(CC(=O)Nc2nc3ccc(S(N)(=O)=O)cc3s2)c(NC(=S)Nc2ccccc2)c1C#N at or over 8 in terms of pKi?
Result string: yes
